solubility values for the compounds below.
- Experiment summary: Water solubility of DOPO compounds
- Type: physicochemical
- Run parameters: water; 25° C.; read-out: solubilitiy FR in water mmol/L
Recorded endpoint: solubility

INSERT INTO results (compound, result) VALUES
  ('O=P1(NCCN(CCN(CCN(CCNP2(=O)Oc3ccccc3-c3ccccc32)P2(=O)Oc3ccccc3-c3ccccc32)P2(=O)Oc3ccccc3-c3ccccc32)P2(=O)Oc3ccccc3-c3ccccc32)Oc2ccccc2-c2ccccc21 (centres unmarked) [TEPA-PDOPO, tetraethylenepentaamine DOPO]', '0.01 mmol/L'),
  ('O=P1(NCCNP2(=O)Oc3ccccc3-c3ccccc32)Oc2ccccc2-c2ccccc21 (centres unmarked) [EDAB-DOPO]', '0.8 mmol/L');

---

- Experiment summary: TGA thermal decomposition of DOPO and amino DOPO derivatives
- Assay type: physicochemical
- Run parameters: 800° C.
Catalogue of % Char at 800° C. values
Recorded endpoint: % Char at 800° C. (%)

INSERT INTO results (molecule, number) VALUES
  ('O=[PH]1Oc2ccccc2-c2ccccc21 (stereo not shown) [DOPO, reference compound]', 2),
  ('O=P1(NCCN(CCNP2(=O)Oc3ccccc3-c3ccccc32)P2(=O)Oc3ccccc3-c3ccccc32)Oc2ccccc2-c2ccccc21 (stereo not shown) [TDETA-DOPO]', 2),
  ('O=P1(NCCNP2(=O)Oc3ccccc3-c3ccccc32)Oc2ccccc2-c2ccccc21 (stereo not shown) [EDAB-DOPO]', 7),
  ('C=CCNP1(=O)Oc2ccccc2-c2ccccc21 (stereo not shown) [AA-DOPO]', 3),
  ('O=P1(NCCOP2(=O)Oc3ccccc3-c3ccccc32)Oc2ccccc2-c2ccccc21 (stereo not shown) [EAB-DOPO]', 2),
  ('CCO[Si](CCCNP1(=O)Oc2ccccc2-c2ccccc21)(OCC)OCC (stereo not shown) [TESPA-DOPO]', 28),
  ('O=P1(N2CCN(P3(=O)Oc4ccccc4-c4ccccc43)CC2)Oc2ccccc2-c2ccccc21 (stereo not shown) [PB-DOPO]', 5);

---

- Experiment summary: Water solubility of DOPO compounds
- Assay type: physicochemical
- Run parameters: water; 90° C.; read-out: solubilitiy FR in water mg/L
- Text: These DOPO-derivatives are very barely soluble in water as it is exemplarily shown for EDAB-DOPO and TEPA-PDOPO in table 2.
Recorded endpoint: solubility

INSERT INTO assay_data (molecule, result) VALUES
  ('O=P1(NCCN(CCN(CCN(CCNP2(=O)Oc3ccccc3-c3ccccc32)P2(=O)Oc3ccccc3-c3ccccc32)P2(=O)Oc3ccccc3-c3ccccc32)P2(=O)Oc3ccccc3-c3ccccc32)Oc2ccccc2-c2ccccc21 (centres unmarked)', '818 mg/L'),
  ('O=P1(NCCNP2(=O)Oc3ccccc3-c3ccccc32)Oc2ccccc2-c2ccccc21 (centres unmarked)', '501 mg/L');

---

- Experiment summary: UL-94 HB test (ASTM D4986 or ISO/DIS 9772.3, horizontal)
- Run parameters: 5% FR in flexible PU foam
Recorded endpoint: Burning Rate (mm/min)

INSERT INTO assay_data (compound, recorded_endpoint, quantity_unit, number) VALUES
  ('C=CCNP1(=O)Oc2ccccc2-c2ccccc21 (stereo not shown)', 'Burning Rate', 'mm/min', 47),
  ('O=P1(NCCNP2(=O)Oc3ccccc3-c3ccccc32)Oc2ccccc2-c2ccccc21 (stereo not shown)', 'Burning Rate', 'mm/min', 25),
  ('O=[PH]1Oc2ccccc2-c2ccccc21 (stereo not shown) [DOPO, reference compound]', 'Burning Rate', 'mm/min', 48),
  ('O=P1(N2CCN(P3(=O)Oc4ccccc4-c4ccccc43)CC2)Oc2ccccc2-c2ccccc21 (stereo not shown)', 'Burning Rate', 'mm/min', 57);

Reference for the values: patent US9650497B2
